Sourced from ChEMBL document CHEMBL1145349

// reported pIC50 for each item listed
# tested-on: Dual specificity mitogen-activated protein kinase kinase 1 (Homo sapiens, UniProt Q02750)
# Sequence (Q02750 whole entry): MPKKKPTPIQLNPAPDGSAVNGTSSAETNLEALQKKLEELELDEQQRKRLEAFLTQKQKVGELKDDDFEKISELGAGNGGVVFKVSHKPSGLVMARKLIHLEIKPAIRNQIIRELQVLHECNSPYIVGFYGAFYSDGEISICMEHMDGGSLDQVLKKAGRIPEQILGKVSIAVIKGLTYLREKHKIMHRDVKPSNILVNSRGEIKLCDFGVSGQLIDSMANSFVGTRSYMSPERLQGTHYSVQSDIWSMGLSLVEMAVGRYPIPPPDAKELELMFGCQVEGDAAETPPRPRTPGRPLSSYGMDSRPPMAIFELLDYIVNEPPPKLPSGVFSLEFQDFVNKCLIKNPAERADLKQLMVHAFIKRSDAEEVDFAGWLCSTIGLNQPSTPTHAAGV
# test-details: Inhibition of MEK1
pIC50: −log10 of the molar value.
readout-type: pIC50

# molecule, readout-type, reported-value
rows = [
    ("Cc1ccccc1Nc1snc(O)c1C#N", "pIC50", "< 5.30"),
    ("N#Cc1c(O)nsc1NCCc1ccc(O)cc1", "pIC50", "< 5.30"),
    ("N#Cc1c(O)nsc1NCCc1cccs1", "pIC50", "< 5.30"),
    ("COc1cc(Nc2snc(O)c2-c2nn[nH]n2)cc(OC)c1", "pIC50", "< 5.70"),
    ("CC(Nc1snc(O)c1C#N)c1ccccc1 (centres undefined)", "pIC50", "< 5.30"),
    ("Cc1cccc(Nc2s[nH]c(=O)c2C#N)c1", "pIC50", "< 5.30"),
    ("N#Cc1c(O)nsc1Nc1cccc([N+](=O)[O-])c1", "pIC50", "< 5.30"),
    ("Cc1ccc(Nc2snc(O)c2/C(N)=N/O)cc1", "pIC50", "< 5.70"),
    ("COc1cccc(Nc2snc(O)c2C#N)c1", "pIC50", "< 5.30"),
    ("N#Cc1c(O)nsc1Nc1ccc(Cl)cc1", "pIC50", 6.39),
    ("Cn1sc(Nc2ccccc2)c(C#N)c1=O", "pIC50", "< 5.30"),
    ("N#Cc1c(O)nsc1Nc1ccccc1", "pIC50", 5.15),
    ("N#Cc1c(O)nsc1Nc1cccnc1", "pIC50", "< 5.30"),
    ("Cc1ccc(Nc2snc(O)c2C#N)cc1", "pIC50", "< 5.30"),
    ("N#Cc1ccc(Nc2s[nH]c(=O)c2C#N)cc1", "pIC50", "< 5.30"),
    ("N#Cc1c(O)nsc1Nc1ccccc1[N+](=O)[O-]", "pIC50", "< 5.30"),
    ("Cc1ccc(Nc2snc(O)c2C(=N)NN2CCCCC2)cc1", "pIC50", "< 5.70"),
    ("COCCCNc1snc(O)c1C#N", "pIC50", "< 5.30"),
    ("COc1ccc(Nc2snc(O)c2C#N)cc1", "pIC50", "< 5.30"),
    ("N#Cc1c(O)nsc1Nc1ccccc1C(F)(F)F", "pIC50", "< 5.30"),
    ("N#Cc1c(O)nsc1NCCCN1CCOCC1", "pIC50", "< 5.30"),
    ("N#Cc1c(NCC2CCCCC2)s[nH]c1=O", "pIC50", "< 5.30"),
    ("CC(C)c1ccc(Sc2snc(O)c2C#N)cc1", "pIC50", "< 5.30"),
    ("N#Cc1c(O)nsc1Oc1ccc(Oc2ccccc2)cc1", "pIC50", "< 5.30"),
    ("N#Cc1c(O)nsc1NCCc1ccccc1", "pIC50", "< 5.30"),
    ("N#Cc1c(O)nsc1Nc1ccc([N+](=O)[O-])cc1", "pIC50", "< 5.30"),
    ("COc1nsc(Nc2ccccc2)c1C#N", "pIC50", "< 5.30"),
    ("CC(C)Nc1snc(O)c1C#N", "pIC50", "< 5.30"),
    ("N#Cc1c(O)nsc1N1CCCCC1", "pIC50", "< 5.30"),
]
